# Test system: Ps. aeruginosa, 2063
# Assay: antimicrobial activity, MIC, standard process of Japan Society of Chemotherapy
# Format: cell-based
# Experimental setup: Ps. aeruginosa
molecules and their reported minimum growth inhibitory concentration (MIC)
Write down the numeric answer in µg/mL and omit the unit.

>>> quantitative_readout("CC(N)C1CCN(c2nc3c(cc2F)c(=O)c(C(=O)O)cn3C2CC2)C1 (centres unmarked) [Example 5]")
0.78
>>> quantitative_readout("CCn1cc(C(=O)O)c(=O)c2cc(F)c(N3CCC(C(C)N)C3)c(F)c21 (single isomer, unassigned) [Example 4]")
0.20
>>> quantitative_readout("CC(N)C1CCN(c2c(F)cc3c(=O)c(C(=O)O)cn(C4CC4)c3c2F)C1 (single isomer, unassigned) [Example 2]")
0.20
>>> quantitative_readout("CC(N)C1CCN(c2nc3c(cc2F)c(=O)c(C(=O)O)cn3C2CC2)C1 (centres unmarked) [Example 19]")
0.20
>>> quantitative_readout("CC(N)C1CCN(c2nc3c(cc2F)c(=O)c(C(=O)O)cn3C2CC2)C1 (centres unmarked) [Example 18]")
0.39

Q: Kindly indicate its recorded minimum growth inhibitory concentration (MIC). Item: CNC(C)C1CCN(c2c(F)cc3c(=O)c(C(=O)O)cn(C4CC4)c3c2F)C1 (single isomer, unassigned) [Example 7]
A: 0.20

Q: Kindly indicate its recorded minimum growth inhibitory concentration (MIC). Item: CC(N)C1CCN(c2c(F)cc3c(=O)c(C(=O)O)cn(C4CC4)c3c2F)C1 (single isomer, unassigned) [Example 1]
A: 0.78

Q: Kindly indicate its recorded minimum growth inhibitory concentration (MIC). Item: CCC(N)C1CCN(c2c(F)cc3c(=O)c(C(=O)O)cn(C4CC4)c3c2F)C1 (centres unmarked) [Example 22]
A: 0.39

* * *

# System: Ps. aeruginosa, 2063
# Assay: antimicrobial activity, MIC, standard process of Japan Society of Chemotherapy
# Assay type: cell-based
# Experimental setup: Pseudomonas aeruginosa, 2063, Ps. aeruginosa, read-out: minimum growth inhibitory concentration (MIC)
Endpoint label: MIC (µg/mL)
Write down the numeric answer in µg/mL and omit the unit.

>>> quantitative_readout("NC1(C2CCN(c3c(F)cc4c(=O)c(C(=O)O)cn(C5CC5)c4c3F)C2)CC1 (stereo not shown)")
0.39
>>> quantitative_readout("CC(C)(N)C1CCN(c2nc3c(cc2F)c(=O)c(C(=O)O)cn3C2CC2)C1 (stereo not shown)")
0.39
>>> quantitative_readout("CNC(C)C1CCN(c2c(F)cc3c(=O)c(C(=O)O)cn(C4CC4)c3c2F)C1 (single isomer, unassigned)")
0.39

Q: Kindly indicate its recorded MIC. Item: CCC(N)C1CCN(c2c(F)cc3c(=O)c(C(=O)O)cn(C4CC4)c3c2F)C1 (stereo not shown) [Example 9]
A: 0.78

Q: Kindly indicate its recorded MIC. Item: CCNCC1CCN(c2c(F)cc3c(=O)c(C(=O)O)cn(C4CC4)c3c2F)C1 (stereo not shown) [Compound A, reference compound]
A: 0.39

Q: Kindly indicate its recorded MIC. Item: CCC(N)C1CCN(c2c(F)cc3c(=O)c(C(=O)O)cn(CC)c3c2F)C1 (stereo not shown) [Example 10]
A: 1.56

Q: Kindly indicate its recorded MIC. Item: CC(C)(N)C1CCN(c2c(F)cc3c(=O)c(C(=O)O)cn(C4CC4)c3c2F)C1 (stereo not shown)
A: 0.78

Q: Kindly indicate its recorded MIC. Item: CNC(C)(C)C1CCN(c2c(F)cc3c(=O)c(C(=O)O)cn(C4CC4)c3c2F)C1 (stereo not shown)
A: 3.13

* * *

compounds and their reported half-life
# Assay: absorption after oral administration to rats
# Type: in vivo
# Experimental setup: rat, 20 mg/kg, serum half life, 0.693/Kel
Write down the numeric answer in h and omit the unit.

>>> quantitative_readout("CNC(C)C1CCN(c2c(F)cc3c(=O)c(C(=O)O)cn(C4CC4)c3c2F)C1 (single isomer, unassigned)")
2.01
>>> quantitative_readout("CC(C)(N)C1CCN(c2nc3c(cc2F)c(=O)c(C(=O)O)cn3C2CC2)C1 (stereo not shown)")
2.41
>>> quantitative_readout("CC(C)(N)C1CCN(c2c(F)cc3c(=O)c(C(=O)O)cn(C4CC4)c3c2F)C1 (stereo not shown)")
2.27

Here is another compound to look at.
Q: Kindly indicate its recorded half-life. Item: CNCC1CCN(c2c(F)cc3c(=O)c(C(=O)O)cn(C4CC4)c3c2F)C1 (stereo not shown) [Compound B, reference compound]
A: 1.55

* * *

molecules and their reported solubility at 0.5 h
# Assay: physchem
# Type: physicochemical
# Experimental setup: water

>>> result("CC(C)(N)C1CCN(c2nc3c(cc2F)c(=O)c(C(=O)O)cn3C2CC2)C1 (centres unmarked)")
"2000 µg/mL"
>>> result("CC(C)(N)C1CCN(c2c(F)cc3c(=O)c(C(=O)O)cn(C4CC4)c3c2F)C1 (centres unmarked)")
"200 µg/mL"
>>> result("CNC(C)C1CCN(c2c(F)cc3c(=O)c(C(=O)O)cn(C4CC4)c3c2F)C1 (single isomer, unassigned)")
"710 µg/mL"
>>> result("CNCC1CCN(c2c(F)cc3c(=O)c(C(=O)O)cn(C4CC4)c3c2F)C1 (centres unmarked) [Compound B, reference compound]")
"80 µg/mL"

Here is another molecule to look at.
Q: Kindly indicate its recorded solubility at 0.5 h. Item: CCNCC1CCN(c2c(F)cc3c(=O)c(C(=O)O)cn(C4CC4)c3c2F)C1 (centres unmarked) [Compound A, reference compound]
A: 40 µg/mL

* * *

# System: Str. pyogenes, G-36
# Assay: antimicrobial activity, MIC, standard process of Japan Society of Chemotherapy
# Assay type: cell-based
# Experimental setup: Streptococcus pyogenes, G36, Str. pyogenes, read-out: minimum growth inhibitory concentration (MIC)
Endpoint label: MIC (µg/mL)
Write down the numeric answer in µg/mL and omit the unit.

The following molecules have reported results that may help.
>>> quantitative_readout("CNC(C)(C)C1CCN(c2c(F)cc3c(=O)c(C(=O)O)cn(C4CC4)c3c2F)C1 (centres unmarked)")
0.1
>>> quantitative_readout("CC(N)C1CCN(c2nc3c(cc2F)c(=O)c(C(=O)O)cn3C2CC2)C1 (centres unmarked)")
0.39
>>> quantitative_readout("CC(N)C1CCN(c2c(F)cc3c(=O)c(C(=O)O)cn(C4CC4)c3c2F)C1 (single isomer, unassigned)")
0.1
>>> quantitative_readout("CCn1cc(C(=O)O)c(=O)c2cc(F)c(N3CCC(C(C)(C)N)C3)c(F)c21 (centres unmarked)")
0.1

Here is another molecule to look at.
Q: Kindly indicate its recorded MIC. Item: CCn1cc(C(=O)O)c(=O)c2cc(F)c(N3CCC(C4(N)CC4)C3)c(F)c21 (centres unmarked)
A: 0.2

* * *

# Assay: absorption after oral administration to rats
# Format: in vivo
# Experimental setup: rat, serum, 20 mg/kg, zero to 6 h, trapezoidal method, read-out: AUC0-6H
compounds and their reported AUC(0-t) at 6 h
Write down the numeric answer in ng·h/mL and omit the unit.

The following compounds have reported results that may help.
>>> quantitative_readout("CNC(C)C1CCN(c2c(F)cc3c(=O)c(C(=O)O)cn(C4CC4)c3c2F)C1 (single isomer, unassigned)")
6310
>>> quantitative_readout("CC(C)(N)C1CCN(c2nc3c(cc2F)c(=O)c(C(=O)O)cn3C2CC2)C1 (stereo not shown)")
7950
>>> quantitative_readout("CC(C)(N)C1CCN(c2c(F)cc3c(=O)c(C(=O)O)cn(C4CC4)c3c2F)C1 (stereo not shown)")
6430

Q: Kindly indicate its recorded AUC(0-t) at 6 h. Item: CNCC1CCN(c2c(F)cc3c(=O)c(C(=O)O)cn(C4CC4)c3c2F)C1 (stereo not shown) [Compound B, reference compound]
A: 3610

* * *

# Assay: physchem
# Format: physicochemical
# Experimental setup: distilled water, room temperature (23° to 26° C.), 30 minutes agitation; read-out: Water solubility
Endpoint label: solubility at 0.5 h (µg/mL)
Write down the numeric answer in µg/mL and omit the unit.

Q: Kindly indicate its recorded solubility at 0.5 h. Item: CCNCC1CCN(c2c(F)cc3c(=O)c(C(=O)O)cn(CC)c3c2F)C1 (stereo not shown) [Compound C, reference compound]
A: 400

* * *

molecules and their reported MIC
# Test system: Ps. aeruginosa, 2063
# Assay: antimicrobial activity, MIC, standard process of Japan Society of Chemotherapy
# Assay type: cell-based
# Experimental setup: Pseudomonas aeruginosa, 2063, Ps. aeruginosa, read-out: minimum growth inhibitory concentration (MIC)
Write down the numeric answer in µg/mL and omit the unit.

The following molecules have reported results that may help.
>>> quantitative_readout("CCn1cc(C(=O)O)c(=O)c2cc(F)c(N3CCC(C4(N)CC4)C3)c(F)c21 (centres unmarked) [Example 16]")
1.56
>>> quantitative_readout("CCn1cc(C(=O)O)c(=O)c2cc(F)c(N3CCC(C(C)N)C3)c(F)c21 (single isomer, unassigned) [Example 3]")
0.39
>>> quantitative_readout("CCC(N)C1CCN(c2c(F)cc3c(=O)c(C(=O)O)cn(C4CC4)c3c2F)C1 (single isomer, unassigned) [Example 21]")
0.2
>>> quantitative_readout("CCn1cc(C(=O)O)c(=O)c2cc(F)c(N3CCC(C(C)(C)N)C3)c(F)c21 (centres unmarked) [Example 12]")
1.56
>>> quantitative_readout("CCC(N)C1CCN(c2c(F)cc3c(=O)c(C(=O)O)cn(CC)c3c2F)C1 (single isomer, unassigned) [Example 20]")
0.39

Q: Kindly indicate its recorded MIC. Item: CCNCC1CCN(c2c(F)cc3c(=O)c(C(=O)O)cn(CC)c3c2F)C1 (centres unmarked) [Compound C, reference compound]
A: 0.78

Q: Kindly indicate its recorded MIC. Item: CNC(C)C1CCN(c2nc3c(cc2F)c(=O)c(C(=O)O)cn3C2CC2)C1 (centres unmarked) [Example 8]
A: 1.56

Q: Kindly indicate its recorded MIC. Item: CNCC1CCN(c2c(F)cc3c(=O)c(C(=O)O)cn(C4CC4)c3c2F)C1 (centres unmarked) [Compound B, reference compound]
A: 0.2
